System: SFV-Rluc
test settings: primary screening of chemical libraries; compounds tested at 50 µM
recorded metric: SFV replication % left (%)

> print(dat)
                                    compound  number
 1    CN(C)CC/C=C1/c2ccccc2Sc2ccc(Cl)cc21.Cl    90.3
 2  CCCCC1C(=O)N(c2ccccc2)N(c2ccc(O)cc2)C1=O (stereo not shown)    84.8
 3                  Cc1cc(=O)n(-c2ccccc2)n1C    60.1
 4         O=C1CN=C(c2ccccc2F)c2cc(Cl)ccc2N1    68.5
 5                      O=C(O)c1cc(O)cc(O)c1     6.9
 6  C[C@@H]1O[C@@H](Oc2c(-c3ccc(O)c(O)c3)oc3cc(O)cc(O)c3c2=O)[C@H](O)[C@H](O)[C@H]1O.O.O    11.4
 7  CN1C(=O)NC(=O)C(C)(C2=CCCCC2)C1=O (stereo not shown)   121.3
 8  N/C(CC(O)COc1cccc2ccccc12)=N/O (stereo not shown)    20.8
 9  CC(C)(C)NCC(O)COc1ccccc1C#N (stereo not shown)    40.7
10                  COC(=O)c1cc(O)c(O)c(O)c1    67.8
11     O=C(c1ccccc1)c1cc2c(ccc3ccccc32)oc1=O    39.9
12  CC(C)NCC(O)c1ccc(Cl)c(Cl)c1.Cl (stereo not shown)    49.6
13  O=C(O)[C@]1(O)C[C@@H](O)[C@@H](O)[C@H](O)C1    98.2
14                           Cc1ccc(O)c(O)c1   111.1
15                             Oc1cccc(O)c1O    22.7
16                  COc1cc(OC)c2ccc(=O)oc2c1    67.4
17  CC(CN1c2ccccc2Sc2ccccc21)[N+](C)(C)CCO.[Cl-] (stereo not shown)   102.2
18  CC(=O)OCC(=O)[C@@]1(O)CC[C@H]2[C@@H]3CCC4=CC(=O)CC[C@]4(C)[C@H]3[C@@H](O)C[C@@]21C   116.8
19           C[C@](N)(Cc1ccc(O)c(O)c1)C(=O)O    99.1
20             CCOc1ccc2c(c1)C(C)=CC(C)(C)N2    96.4
21                   CCCCNC(=O)c1ccc(Cl)cc1O    49.6
22   O=c1cc(C(F)(F)F)c2cc3c4c(c2o1)CCCN4CCC3    52.6

---

Below are compounds with their SFV replication % left (surviving fraction, remaining percentage of SFV replication) as measured on SFV-Rluc.
recorded metric: SFV replication % left (surviving fraction, remaining percentage of SFV replication) (%)

> print(dat)
                                   compound  measurement.unit  number
1  O=C(O)Cc1ccccc1O [2-Hydroxyphenylacetic acid]                 %     7.3
2  Cc1c(C)c2c(c(C)c1OC(=O)CCC(=O)O)CC[C@@](C)(CCC[C@H](C)CCC[C@H](C)CCCC(C)C)O2 [(+)-a-Tocopherol acid succinate]                 %    75.3
3          CN(C)c1cccc2c(S(=O)(=O)Cl)cccc12                 %     4.6
4               O=c1cc(-c2ccccc2)oc2ccccc12                 %    52.2
5  O=C(O)[C@]1(O)C[C@@H](O)[C@@H](O)[C@H](O)C1 [(-)-Quinic acid]                 %    98.2
6  C=CC/C(=N/OS(=O)(=O)[O-])S[C@@H]1O[C@H](CO)[C@@H](O)[C@H](O)[C@H]1O.O.[K+] [Sinigrin monohydrate]                 %    47.6
7  CCCCCCCCOC(=O)c1cc(O)c(O)c(O)c1 [Octyl gallate]                 %   134.4
8  COc1cc(O)c2c(=O)c(O)c(-c3ccc(O)c(O)c3)oc2c1                 %   119.1
9       COc1ccccc1-c1cc(=O)c2ccc3ccccc3c2o1                 %    45.8
